Where do these numbers come from? They come from the supplement of paper PMC9233669.

# Test system: biotinyl-Trp-oxazolone
# MEASUREMENT NOTES: self-aminoacylation, catalytic enhancement (BWO) (fold over background); higher = more active; k-Seq, kA / k0A0; sequences stand for … in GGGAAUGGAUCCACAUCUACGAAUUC…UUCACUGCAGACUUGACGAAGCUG
Fewer inactive variants are shown than the library holds.
OBSERVABLE: self-aminoacylation
// return just the number, without any unit appended

Completed entries (count: 3):
CUACUUCAAACAAUAGGGCUG [Fam1A.1 aminoacylation ribozyme variant] : 0.391
AAGUUUGCUACUAGUCGCAAG [Fam3.1 aminoacylation ribozyme variant] : 0.775
CCACACUUCAAGCUAUAGGUC [Fam1B.1 aminoacylation ribozyme variant] : 0.508

Requested read-out: self-aminoacylation. Entry: CCACACGUCAAGCAAUCGGUG [Fam1B.1 aminoacylation ribozyme variant] 2.35
